protocol_text: Pharmacokinetic studies in mice after single s.c. or oral dose
conditions: female, CD-1, mouse, plasma, sc, 40 mg/kg, PK s.c. AUC0-48, mice, 40 mg/kg s.c.
We begin with a simple list: items and their reported AUC(0-t).
measure_name: AUC(0-t) (µM·h)

{"entry_smiles": "C[N+]1(CCCCCCOc2ccc(C(c3ccc(Cl)cc3)=C3C4C[C@H]5C[C@@H](C4)C[C@H]3C5)cc2)CCCC1", "value": 160}
{"entry_smiles": "CC[N+](C)(CC)CCCCCCOc1ccc(C(c2ccc(OCCCCCC[N+](C)(CC)CC)cc2)=C2C3C[C@H]4C[C@@H](C3)C[C@H]2C4)cc1", "value": 746}
{"entry_smiles": "C[n+]1ccn(CCCCCCOc2ccc(C(=C3C4CC5CC(C4)CC3C5)c3ccc(Cl)cc3)cc2)c1", "value": 150}
{"entry_smiles": "CCN(CC)CCCCCCOc1ccc(C(=C2C3CC4CC(C3)CC2C4)c2ccc(O)cc2)cc1", "value": 13.3}

---

Test system: MCF7 cells
protocol_text: Cell proliferation assay (WST-1), MCF7
Format: cell-based, human
conditions: Homo sapiens, MCF7, inhibition of cell proliferation; read-out: IC50 MCF7
Response field label takes yes (1) when IC50 is strictly below 1000 nM and no (0) in all other cases.

{"entry_smiles": "OCCN(CCO)CCCCCCOc1ccc(C(=C2C3CC4CC(C3)CC2C4)c2ccc(OCCCCCCN(CCO)CCO)cc2)cc1", "label_class": "yes (1)"}
{"entry_smiles": "Clc1ccc(C(=C2C3CC4CC(C3)CC2C4)c2ccc(OCCCCCCN3CCCCC3)cc2)cc1", "label_class": "no (0)"}
{"entry_smiles": "c1cc(C(=C2C3CC4CC(C3)CC2C4)c2ccc(OCCCCN3CCCCCC3)cc2)ccc1OCCCCN1CCCCCC1", "label_class": "no (0)"}
{"entry_smiles": "c1cc(C(=C2C3CC4CC(C3)CC2C4)c2ccc(OCCCCN3CCCCC3)cc2)ccc1OCCCCN1CCCCC1", "label_class": "yes (1)"}
{"entry_smiles": "C[N+]1(CCCCCOc2ccc(C(=C3C4CC5CC(C4)CC3C5)c3ccc(OCCCCC[N+]4(C)CCCCCC4)cc3)cc2)CCCCCC1", "label_class": "yes (1)"}
{"entry_smiles": "c1cc(C(=C2C3CC4CC(C3)CC2C4)c2ccc(OCCCCCCN3CCCC3)cc2)ccc1OCCCCCCN1CCCC1", "label_class": "yes (1)"}
{"entry_smiles": "CCN(CC)CCCCCCOc1ccc(C(c2ccc(OCCCCCCN(CC)CC)cc2)=C2[C@H]3C[C@@H]4C[C@@H](C[C@H]2C4)C3)cc1", "label_class": "yes (1)"}

---

We begin with a simple list: items and their reported pIC50.
Tested on: MCF7 cells
protocol_text: Cell proliferation assay (WST-1), MCF7
Assay type: cell-based, human
conditions: Homo sapiens, MCF7, read-out: IC50 MCF7
Procedure: All cells were tested for mycoplasma using Real-Time PCR Mycoplasma Detection Kit (Akron Biotech, Boca Raton, FL). All assays were performed in triplicate.
pIC50: −log10 of the molar value.

{"entry_smiles": "c1cc(C(c2ccc(OCCCCCCN3CCCCC3)cc2)=C2[C@H]3C[C@@H]4C[C@@H](C[C@H]2C4)C3)ccc1OCCCCCCN1CCCCC1", "target_system": "MCF7 cells", "pIC50": 6.15}
{"entry_smiles": "CC[N+](C)(CC)CCCCCCOc1ccc(C(c2ccc(OCCCCCC[N+](C)(CC)CC)cc2)=C2C3C[C@H]4C[C@@H](C3)C[C@H]2C4)cc1", "target_system": "MCF7 cells", "pIC50": 5.96}
{"entry_smiles": "c1cc(C(=C2C3CC4CC(C3)CC2C4)c2ccc(OCCCCCCN3CCCCCC3)cc2)ccc1OCCCCCCN1CCCCCC1", "target_system": "MCF7 cells", "pIC50": 6.15}
{"entry_smiles": "C[N+]1(CCCCCCOc2ccc(C(c3ccc(OCCCCCC[N+]4(C)CCCCC4)cc3)=C3C4C[C@H]5C[C@@H](C4)C[C@H]3C5)cc2)CCCCC1", "target_system": "MCF7 cells", "pIC50": 5.96}
